In this section we review reported fold change of Tryptamine concentration values for a set of compounds.
system: Clostridium sporogenes DSM 1664; assay: fold change of Tryptamine concentration vs plate DMSO controls (fold change (ratio)); higher = more amine produced, active = hit call of the paper (significant change in both replicates, either direction); settings: incubation time: 27 h, anaerobic, 37 °C
Counter-ions that a name gives are not always drawn.

Compound	Target	fold change of Tryptamine concentration
CO[C@@H]1[C@@H](O[C@@H]2O[C@H](C)[C@@H](O[C@H]3C[C@@](C)(O)[C@@H](O)[C@H](C)O3)[C@H](N(C)C)[C@H]2O)[C@@H](CC=O)C[C@@H](C)[C@@H](O[C@H]2CC[C@H](N(C)C)[C@@H](C)O2)/C=C/C=C/C[C@@H](C)OC(=O)C[C@H]1OC(C)=O [Acetyl spiramycin] (20 µM)	Clostridium sporogenes DSM 1664	0.0194
CNCCCN1c2ccccc2CCc2ccccc21 [Desipramine hydrochloride] (20 µM)	Clostridium sporogenes DSM 1664	0.982
CCc1cc(C(N)=S)ccn1 [Ethionamide] (20 µM)	Clostridium sporogenes DSM 1664	1
CCN(CC)C(=O)c1ccc(O)c(OC)c1 [Ethamivan] (20 µM)	Clostridium sporogenes DSM 1664	1.02

###

tested on: Klebsiella aerogenes DSM 30053; assay: fold change of Putrescine concentration vs plate DMSO controls (fold change (ratio)); higher = more amine produced, active = hit call of the paper (significant change in both replicates, either direction); settings: incubation time: 27 h, anaerobic, 37 °C
Where a name gives a salt, the structure may show the parent alone.
Reported fold change of Putrescine concentration values are given for each entry in this list.
Quantity Name: fold change of Putrescine concentration

>>> df
                                   compound  reported
0  Cc1c(Cl)cccc1Nc1ccccc1C(=O)O [Tolfenamic acid] (20 µM)     0.984
1  CN1CCc2cccc3c2[C@H]1Cc1ccc(O)c(O)c1-3 [R(-) Apomorphine hydrochloride hemihydrate] (20 µM)     0.978
2  Cc1ccc(-c2cc(C(F)(F)F)nn2-c2ccc(S(N)(=O)=O)cc2)cc1 [Celecoxib] (20 µM)     0.991
3  CC(=O)NS(=O)(=O)c1ccc(N)cc1 [Sulfacetamide sodic hydrate] (20 µM)     0.996

###

test system: Ruminococcus gnavus DSM 108212; assay: growth (OD595) fold change vs plate DMSO controls (fold change (ratio)); higher = more growth; settings: incubation time: 27 h, anaerobic, 37 °C
Counter-ions that a name gives are not always drawn.
Classification field: enter Y for growth values not below 1, N for values below it.

Compound	Class Name
OCC(CO)N[C@H]1C[C@](O)(CO)[C@@H](O)[C@H](O)[C@H]1O [Voglibose] (20 µM)	Y
C#C[C@]1(O)CC[C@H]2[C@@H]3[C@H](C)CC4=C(CCC(=O)C4)[C@H]3CC[C@@]21C [Tibolone] (20 µM)	N
CC(C)OC(=O)C(C)(C)Oc1ccc(C(=O)c2ccc(Cl)cc2)cc1 [Fenofibrate] (20 µM)	Y
Nc1ccc(S(=O)(=O)Nc2nccs2)cc1 [Sulfathiazole] (20 µM)	N
CCN(CC)CCNc1ccc(CO)c2sc3ccccc3c(=O)c12 [Hycanthone] (20 µM)	N
CCOC(=O)[C@@](C)(N)Cc1ccc(O)c(O)c1 [Methyldopate hydrochloride] (20 µM)	Y
Cc1onc(-c2ccccc2Cl)c1C(=O)N[C@@H]1C(=O)N2[C@@H]1SC(C)(C)[C@@H]2C(=O)O [Cloxacillin sodium salt] (20 µM)	N

###

test system: Ruminococcus gnavus DSM 108212; assay: fold change of 2-Phenylethylamine concentration vs plate DMSO controls (fold change (ratio)); higher = more amine produced, active = hit call of the paper (significant change in both replicates, either direction); settings: incubation time: 27 h, anaerobic, 37 °C
Counter-ions that a name gives are not always drawn.
Class criterion met: fold change of 2-Phenylethylamine concentration at least 1. Class criterion not met: fold change of 2-Phenylethylamine concentration below 1.

Molecule	Class Name
CCCCN(CCCC)CCCOC(=O)c1ccc(N)cc1 [Butacaine] (20 µM)	criterion not met
CCCCCCCCc1c(CC)nc2ncnn2c1N (20 µM)	criterion not met
Nc1ccn([C@@H]2O[C@H](CO)[C@@H](O)C2(F)F)c(=O)n1 [Gemcitabine] (20 µM)	criterion not met
Cc1cccc(C)c1NC(=O)C(C)N (stereo not given) [Tocainide hydrochloride] (20 µM)	criterion met
CC1(C)S[C@@H]2[C@H](NC(=O)C(c3ccccc3)S(=O)(=O)O)C(=O)N2[C@H]1C(=O)O (stereo not given in full) [Sulbenicillin sodium salt] (20 µM)	criterion not met
OCCN1C[C@H](O)[C@@H](O)[C@H](O)[C@H]1CO [Miglitol] (20 µM)	criterion met
CC[C@H]1OC(=O)[C@H](C)[C@@H](O[C@H]2C[C@@](C)(OC)[C@@H](O)[C@H](C)O2)[C@H](C)[C@@H](O[C@@H]2O[C@H](C)C[C@H](N(C)C)[C@H]2O)[C@](C)(O)C[C@@H](C)C(=O)[C@H](C)[C@@H](O)[C@]1(C)O [Erythromycin] (20 µM)	criterion not met
Cc1nc2n(c(=O)c1CCN1CCC(c3noc4cc(F)ccc34)CC1)CCCC2 [Risperidone] (20 µM)	criterion not met
NC(=O)C(c1ccccc1)(c1ccccc1)[C@@H]1CCN(CCc2ccc3c(c2)CCO3)C1 [Darifenacin hydrobromide] (20 µM)	criterion met
COc1ccc2cc(CCC(C)=O)ccc2c1 [Nabumetone] (20 µM)	criterion not met
CC(=O)Nc1ccc(OC(=O)c2ccccc2O)cc1 [Acetaminosalol] (20 µM)	criterion not met

###

test system: Klebsiella aerogenes DSM 30053; assay: fold change of Putrescine concentration vs plate DMSO controls (fold change (ratio)); higher = more amine produced, active = hit call of the paper (significant change in both replicates, either direction); conditions: incubation time: 27 h, anaerobic, 37 °C
Where a name gives a salt, the structure may show the parent alone.

Compound	Target	fold change of Putrescine concentration
O=S(=O)([O-])NC1CCCCC1.[Na+] [Sodium cyclamate] (50 µM)	Klebsiella aerogenes DSM 30053	1.02
CN(C)c1ccc(O)c2c1C[C@H]1C[C@H]3[C@H](N(C)C)C(=O)C(C(N)=O)=C(O)[C@@]3(O)C(=O)C1=C2O [Minocycline hydrochloride] (20 µM)	Klebsiella aerogenes DSM 30053	0.866
NC(=O)c1cc[n+](CC2=C(C(=O)[O-])N3C(=O)[C@@H](NC(=O)[C@@H](c4ccccc4)S(=O)(=O)O)[C@H]3SC2)cc1 [Cefsulodin sodium salt] (20 µM)	Klebsiella aerogenes DSM 30053	1.01
O=C(CCCN1CC=C(n2c(=O)[nH]c3ccccc32)CC1)c1ccc(F)cc1 [Droperidol] (20 µM)	Klebsiella aerogenes DSM 30053	1.02
Clc1ccc(CSC(Cn2ccnc2)c2ccc(Cl)cc2Cl)cc1 (centres undefined) [Sulconazole nitrate] (20 µM)	Klebsiella aerogenes DSM 30053	0.96
CC[N+](CC)(CC)CCC(O)(c1ccccc1)C1CCCCC1 (centres undefined) [Tridihexethyl chloride] (20 µM)	Klebsiella aerogenes DSM 30053	0.975
NS(=O)(=O)c1cc(C(=O)O)cc(N2CCCC2)c1Oc1ccccc1 [Piretanide] (20 µM)	Klebsiella aerogenes DSM 30053	1.04
Cc1nccn1CC1CCc2c(c3ccccc3n2C)C1=O (centres undefined) [Ondansetron hydrochloride] (20 µM)	Klebsiella aerogenes DSM 30053	0.978
CC[C@H]1OC(=O)[C@H](C)[C@@H](O[C@H]2C[C@@](C)(OC)[C@@H](O)[C@H](C)O2)[C@H](C)[C@@H](O[C@@H]2O[C@H](C)C[C@H](N(C)C)[C@H]2O)[C@](C)(O)C[C@@H](C)/C(=N\OCOCCOC)[C@H](C)[C@@H](O)[C@]1(C)O [Roxithromycin] (20 µM)	Klebsiella aerogenes DSM 30053	0.973
O=C1Nc2ccccc2C1(c1ccc(O)cc1)c1ccc(O)cc1 [Oxyphenisatin] (20 µM)	Klebsiella aerogenes DSM 30053	1
CC1CS(=O)(=O)CCN1/N=C/c1ccc([N+](=O)[O-])o1 (centres undefined) [Nifurtimox] (20 µM)	Klebsiella aerogenes DSM 30053	0.949
CCC(C)C(C(=O)OCC[N+](C)(CC)CC)c1ccccc1 (centres undefined) [Valethamate bromide] (20 µM)	Klebsiella aerogenes DSM 30053	1.02
c1ccc2[nH]c(-c3cscn3)nc2c1 [Tiabendazole] (20 µM)	Klebsiella aerogenes DSM 30053	0.964
O=c1[nH]cnc2c1ncn2[C@H]1CC[C@@H](CO)O1 [Didanosine] (20 µM)	Klebsiella aerogenes DSM 30053	1.08

###

system: Clostridium sporogenes DSM 1664; assay: growth (OD595) fold change vs plate DMSO controls (fold change (ratio)); higher = more growth; details: incubation time: 27 h, anaerobic, 37 °C
Where a name gives a salt, the structure may show the parent alone.

Compound	growth
O=C1[C@H](CC[C@H](O)c2ccc(F)cc2)[C@@H](c2ccc(O)cc2)N1c1ccc(F)cc1 [Ezetimibe] (20 µM)	1.3
CC(C)Nc1ncccn1 [Isaxonine] (20 µM)	1.12
CCN1CCC[C@H]1CNC(=O)c1c(OC)ccc(Br)c1OC [Remoxipride hydrochloride] (20 µM)	1.09
Nc1ccn([C@H]2CC[C@@H](CO)O2)c(=O)n1 [Zalcitabine] (20 µM)	1.05
O=C(c1ccc(F)cc1)C1CCN(CCn2c(=O)[nH]c3ccccc3c2=O)CC1 [Ketanserin tartrate hydrate] (20 µM)	1.21
CC(=O)O[C@@]12CO[C@@H]1C[C@H](O)[C@@]1(C)C(=O)[C@H](O)C3=C(C)[C@@H](OC(=O)[C@H](O)[C@@H](NC(=O)OC(C)(C)C)c4ccccc4)C[C@@](O)([C@@H](OC(=O)c4ccccc4)[C@H]21)C3(C)C [Docetaxel] (20 µM)	0.864
COC(=O)C1=C(C)NC(C)=C(C(=O)O[C@H]2CCN(Cc3ccccc3)C2)[C@H]1c1cccc([N+](=O)[O-])c1 [Barnidipine Hydrochloride] (20 µM)	0.993
CCC(NC(C)C)C(O)c1ccc(O)c(O)c1 (stereo not given) [Isoetharine mesylate salt] (20 µM)	1.13
COC(=O)[C@@H]1[C@H]2C[C@H]3c4[nH]c5ccccc5c4CCN3C[C@@H]2CC[C@@H]1O [Yohimbine hydrochloride] (20 µM)	1.02
O=C(Cn1ccnc1[N+](=O)[O-])NCCO [Etanidazole] (20 µM)	0.988
OCC(O)CN1CCN(c2ccccc2)CC1 (stereo not given) [Dropropizine] (20 µM)	0.934
CCN(CCCCOC(=O)c1ccc(OC)c(OC)c1)C(C)Cc1ccc(OC)cc1 (stereo not given) [Mebeverine hydrochloride] (20 µM)	0.955
CO[C@@]1(NC(=O)C2SC(=C(C(N)=O)C(=O)O)S2)C(=O)N2C(C(=O)O)=C(CSc3nnnn3C)CS[C@@H]21 (stereo not given in full) [Cefotetan] (20 µM)	0
Cc1ncc([N+](=O)[O-])n1CC(C)O (stereo not given) [Secnidazole] (20 µM)	0
CCCCCCCCNC(C)C(O)c1ccc(SC(C)C)cc1 (stereo not given) [Suloctidil] (20 µM)	1.12
